These data points were gathered from ChEMBL document CHEMBL1909046.

Target system: Alpha-2A adrenergic receptor (Homo sapiens); also: in other assays of this panel Not Active means under 50% inhibition at 10 µM
Sequence (P08913 whole entry): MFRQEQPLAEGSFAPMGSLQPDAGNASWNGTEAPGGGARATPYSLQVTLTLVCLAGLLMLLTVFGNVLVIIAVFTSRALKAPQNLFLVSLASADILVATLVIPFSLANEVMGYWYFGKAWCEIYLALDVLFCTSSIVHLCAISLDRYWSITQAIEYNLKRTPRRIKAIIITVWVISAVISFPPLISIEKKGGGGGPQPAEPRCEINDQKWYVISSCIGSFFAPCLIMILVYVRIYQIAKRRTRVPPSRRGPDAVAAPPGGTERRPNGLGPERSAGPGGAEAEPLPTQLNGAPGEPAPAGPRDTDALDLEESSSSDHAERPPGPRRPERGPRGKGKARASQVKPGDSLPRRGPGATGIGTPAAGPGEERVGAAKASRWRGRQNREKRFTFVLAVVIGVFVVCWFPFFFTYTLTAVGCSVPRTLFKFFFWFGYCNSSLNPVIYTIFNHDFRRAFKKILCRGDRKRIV
Type: cell membranes, Sf9, Membrane
Condition: sf9

{"Molecule": "NCCCCCC(=O)O [AMINOCAPROIC ACID]", "IC50": "Not Active"}
{"Molecule": "NS(=O)(=O)c1cc2c(cc1Cl)NC(C(Cl)Cl)NS2(=O)=O (stereo not drawn) [TRICHLORMETHIAZIDE]", "IC50": "Not Active"}
{"Molecule": "CC(=O)O[C@@]12CO[C@@H]1C[C@H](O)[C@@]1(C)C(=O)[C@H](O)C3=C(C)[C@@H](OC(=O)[C@H](O)[C@@H](NC(=O)OC(C)(C)C)c4ccccc4)C[C@@](O)([C@@H](OC(=O)c4ccccc4)[C@H]21)C3(C)C.O.O.O [DOCETAXEL]", "IC50": "Not Active"}

---

Target system: Cytochrome P450 2E1 (Homo sapiens); also: in other assays of this panel Not Active means under 50% inhibition at 10 µM
Sequence (P05181 whole entry): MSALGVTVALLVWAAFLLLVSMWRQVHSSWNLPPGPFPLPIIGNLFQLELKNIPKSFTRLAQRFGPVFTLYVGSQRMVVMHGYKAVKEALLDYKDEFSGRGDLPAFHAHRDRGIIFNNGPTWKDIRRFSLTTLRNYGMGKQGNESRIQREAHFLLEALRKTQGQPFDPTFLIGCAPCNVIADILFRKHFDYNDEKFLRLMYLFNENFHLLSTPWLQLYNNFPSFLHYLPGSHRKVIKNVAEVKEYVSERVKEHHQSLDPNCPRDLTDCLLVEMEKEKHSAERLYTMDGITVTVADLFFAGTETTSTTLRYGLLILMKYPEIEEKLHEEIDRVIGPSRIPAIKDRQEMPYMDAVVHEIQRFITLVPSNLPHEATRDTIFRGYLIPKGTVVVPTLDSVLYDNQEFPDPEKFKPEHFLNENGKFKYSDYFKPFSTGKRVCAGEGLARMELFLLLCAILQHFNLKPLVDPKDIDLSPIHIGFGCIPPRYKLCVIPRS
Condition: bti-tn-5b1-4

{"Compound structure": "COc1c(C)c2c(c(O)c1C/C=C(\\C)CCC(=O)O)C(=O)OC2", "Ki": "Not Active"}
{"Compound structure": "Cc1onc(-c2ccccc2Cl)c1C(=O)N[C@@H]1C(=O)N2[C@@H]1SC(C)(C)[C@@H]2C(=O)O", "Ki": "Not Active"}
{"Compound structure": "Nc1nc2nc[nH]c2c(=S)[nH]1", "Ki": "Not Active"}

---

Target system: Leukotriene C4 synthase (Cavia porcellus);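 also: enzyme inhibition assay of leukotriene C4 synthase, using LTA4 as the substrate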; also: in other assays of this panel Not Active means under 50% inhibition at 10 µM
Sequence (A6XA80 whole entry): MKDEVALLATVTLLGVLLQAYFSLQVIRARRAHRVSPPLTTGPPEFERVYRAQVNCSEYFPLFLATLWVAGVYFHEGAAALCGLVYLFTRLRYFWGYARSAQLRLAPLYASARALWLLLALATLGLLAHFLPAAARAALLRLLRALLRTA
Type: tissue-based, Lung
Measurement name: IC50

{"Molecule": "CC(C)[C@@]1(NC(=O)[C@@H]2C[C@@H]3c4cccc5[nH]cc(c45)C[C@H]3N(C)C2)O[C@@]2(O)[C@@H]3CCCN3C(=O)[C@H](Cc3ccccc3)N2C1=O.CS(=O)(=O)O [DIHYDROERGOCRISTINE MESYLATE]", "Target system": "Leukotriene C4 synthase (Cavia porcellus)", "Measurement name": "IC50", "Experimental value": "Not Active"}
{"Molecule": "COc1cc2c3cc1Oc1cc(ccc1O)C[C@@H]1c4c(cc(OC)c(O)c4Oc4ccc(cc4)C[C@@H]3N(C)CC2)CC[N+]1(C)C.[Cl-]", "Target system": "Leukotriene C4 synthase (Cavia porcellus)", "Measurement name": "IC50", "Experimental value": "Not Active"}
{"Molecule": "CC(=O)[C@@]1(O)CC[C@H]2[C@@H]3C[C@H](C)C4=CC(=O)CC[C@]4(C)[C@H]3CC[C@@]21C", "Target system": "Leukotriene C4 synthase (Cavia porcellus)", "Measurement name": "IC50", "Experimental value": "Not Active"}

---

Protocol text: DRUGMATRIX: Serotonin (5-Hydroxytryptamine) 5-HT3 radioligand binding (ligand: [3H] GR-65630)
Assay type: cell membranes, Membrane
Condition: hek293; Not Active = under 50% inhibition at 10 µM

{"Compound": "CC(C)C(Br)C(=O)NC(N)=O (stereo not drawn) [BROMISOVALUM]", "Ki": "Not Active"}
{"Compound": "O=c1[nH]c(=O)n([C@H]2C[C@H](O)[C@@H](CO)O2)cc1I [IDOXURIDINE]", "Ki": "Not Active"}
{"Compound": "C[C@H]1O[C@@H](O[C@H]2[C@@H](O)C[C@H](O[C@H]3[C@@H](O)C[C@H](O[C@H]4CC[C@@]5(C)[C@H](CC[C@@H]6[C@@H]5C[C@@H](O)[C@]5(C)[C@@H](C7=CC(=O)OC7)CC[C@]65O)C4)O[C@@H]3C)O[C@@H]2C)C[C@H](O)[C@@H]1O [DIGOXIN]", "Ki": "Not Active"}
